Listing: viability, T/C of selected compounds
Tested on: 494315-158-R-J1-PDC complex spheroid growth, percent test/control
Test: Anticancer human tumor 494315-158-R-J1-PDC patient-derived soft tissue sarcoma cell line growth inhibition [Asc]
Conditions: second compound 1 µM; first compound 10 µM; stronger effect = lower value
quantity.kind: viability, T/C (%)

compound: C#Cc1c(F)ccc2cc(O)cc(-c3ncc4c(N5CC6CCC(C5)N6)nc(OCC56CCCN5CC(F)C6)nc4c3F)c12 (stereo not drawn) + Cc1c(S(C)(=O)=O)c(-c2cc(F)cc(N3CCN(c4ccc(NS(=O)(=O)c5ccc(NC(CCN6CCC(C(=O)OCCCP(=O)(O)O)CC6)CSc6ccccc6)c(S(=O)(=O)C(F)(F)F)c5)cc4)CC3)c2)c(-c2ccc(Cl)cc2)n1C(C)C
unit.name: %
recorded.number: 51.4
--
compound: C=CC(=O)N1CCN(c2nc(=O)n(-c3c(C)ccnc3C(C)C)c3nc(-c4c(O)cccc4F)c(F)cc23)C(C)C1 (stereo not drawn) + CNC(C)C(=O)NC1CN(S(=O)(=O)c2cccc(S(=O)(=O)N3CCC4CCC(C(=O)NC(c5ccccc5)c5ccccc5)N4C(=O)C(NC(=O)C(C)NC)C3)c2)CCC2CCC(C(=O)NC(c3ccccc3)c3ccccc3)N2C1=O
unit.name: %
recorded.number: 40.9
--
compound: C=C(F)C(=O)N1CCN(c2nc(OCC3CCCN3C)nc3c2CCN(c2cccc4cccc(Cl)c24)C3)CC1CC#N (stereo not drawn) + Cc1c(S(C)(=O)=O)c(-c2cc(F)cc(N3CCN(c4ccc(NS(=O)(=O)c5ccc(NC(CCN6CCC(C(=O)OCCCP(=O)(O)O)CC6)CSc6ccccc6)c(S(=O)(=O)C(F)(F)F)c5)cc4)CC3)c2)c(-c2ccc(Cl)cc2)n1C(C)C
unit.name: %
recorded.number: 0.12

* * *

Tested on: 494315-158-R-J1-PDC complex spheroid growth, percent test/control
Experiment: Anticancer human tumor 494315-158-R-J1-PDC cell line growth inhibition [Asc];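 further: compound exposure lasted seven days after spheroids formed for three days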
Settings: second compound 0.949 µM; first compound 0.0316 µM; stronger effect = lower value
Could you please mark yes for values of viability, T/C below 90% and no for values at or above it?

molecule: C=CC(=O)N1CCN(c2nc(=O)n(-c3c(C)ccnc3C(C)C)c3nc(-c4c(O)cccc4F)c(F)cc23)C(C)C1 (configuration not stated) + CCN1C(C(=O)NC23CCC(C(=O)O)(CC2)CC3)C(c2cccc(Cl)c2F)C2(C(=O)Nc3cc(Cl)ccc32)C12CCCCC2
group: yes
//
molecule: CNC(C)C(=O)NC1CN(S(=O)(=O)c2cccc(S(=O)(=O)N3CCC4CCC(C(=O)NC(c5ccccc5)c5ccccc5)N4C(=O)C(NC(=O)C(C)NC)C3)c2)CCC2CCC(C(=O)NC(c3ccccc3)c3ccccc3)N2C1=O (configuration not stated) + CCN1C(C(=O)NC23CCC(C(=O)O)(CC2)CC3)C(c2cccc(Cl)c2F)C2(C(=O)Nc3cc(Cl)ccc32)C12CCCCC2
group: yes
//
molecule: COc1c(OCCCN2CCOCC2)ccc2c3n(c(=NC(=O)c4cnc(N)nc4)nc12)CCN3 + CCN1C(C(=O)NC23CCC(C(=O)O)(CC2)CC3)C(c2cccc(Cl)c2F)C2(C(=O)Nc3cc(Cl)ccc32)C12CCCCC2
group: yes
//
molecule: O=C(c1ccc(F)c(F)c1Nc1ccc(I)cc1F)N1CC(O)([C@@H]2CCCCN2)C1 + CCN1C(C(=O)NC23CCC(C(=O)O)(CC2)CC3)C(c2cccc(Cl)c2F)C2(C(=O)Nc3cc(Cl)ccc32)C12CCCCC2
group: no
//
molecule: C#Cc1c(F)ccc2cc(O)cc(-c3ncc4c(N5CC6CCC(C5)N6)nc(OCC56CCCN5CC(F)C6)nc4c3F)c12 (configuration not stated) + CCN1C(C(=O)NC23CCC(C(=O)O)(CC2)CC3)C(c2cccc(Cl)c2F)C2(C(=O)Nc3cc(Cl)ccc32)C12CCCCC2
group: yes
//
molecule: C=C(F)C(=O)N1CCN(c2nc(OCC3CCCN3C)nc3c2CCN(c2cccc4cccc(Cl)c24)C3)CC1CC#N (configuration not stated) + CCN1C(C(=O)NC23CCC(C(=O)O)(CC2)CC3)C(c2cccc(Cl)c2F)C2(C(=O)Nc3cc(Cl)ccc32)C12CCCCC2
group: yes
